Please go through the items and note down their 抑制HDF细胞产生IL-6 IC50(ng/ml).
# System Under Test: T1, 人皮肤成纤维细胞(HDF)上的IL-17RA (UniProt Q96F46 33-866, limits assumed)
# T1 sequence (looked up): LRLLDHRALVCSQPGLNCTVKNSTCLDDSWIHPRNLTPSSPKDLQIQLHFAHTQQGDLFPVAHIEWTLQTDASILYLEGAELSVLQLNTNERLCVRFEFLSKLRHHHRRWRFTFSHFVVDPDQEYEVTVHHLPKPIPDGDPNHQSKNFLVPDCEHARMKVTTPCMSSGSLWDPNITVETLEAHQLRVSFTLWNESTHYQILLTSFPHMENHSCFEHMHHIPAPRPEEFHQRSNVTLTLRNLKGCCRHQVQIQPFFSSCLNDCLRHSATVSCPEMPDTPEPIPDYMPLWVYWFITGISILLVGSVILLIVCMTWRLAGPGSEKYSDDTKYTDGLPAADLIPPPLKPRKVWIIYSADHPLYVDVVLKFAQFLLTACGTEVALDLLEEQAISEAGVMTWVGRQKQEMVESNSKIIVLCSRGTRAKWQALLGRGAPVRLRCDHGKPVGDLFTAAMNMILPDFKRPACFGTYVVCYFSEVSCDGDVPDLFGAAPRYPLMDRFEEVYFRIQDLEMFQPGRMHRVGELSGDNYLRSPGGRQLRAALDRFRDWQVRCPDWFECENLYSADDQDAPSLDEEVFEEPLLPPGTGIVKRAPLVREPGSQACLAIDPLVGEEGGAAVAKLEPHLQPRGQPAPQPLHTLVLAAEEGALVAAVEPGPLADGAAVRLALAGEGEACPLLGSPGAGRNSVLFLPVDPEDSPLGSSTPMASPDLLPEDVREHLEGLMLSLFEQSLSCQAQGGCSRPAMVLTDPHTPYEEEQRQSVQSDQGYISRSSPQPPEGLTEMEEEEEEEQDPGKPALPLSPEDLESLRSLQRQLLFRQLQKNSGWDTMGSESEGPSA
# Method Summary: cell-based or functional assay
Express your answer as a number followed by its unit.

Observe how each entry below is paired with its result.
mAb-11全抗体 (antibody, human IgG1, kappa, V domains shown) VH: QVQLVQSGAEVKKPGASVKVSCKASGYAWTRYGISWVRQAPGQGLEWMGWISTYSGNTNYAKKFKGRVTMTTDTSTSTAYMELRSLRSDDTAVYYCARRVLRLDYWGQGTLVTVSS VL: DIQMTQSPSSLSASVGDRVTITCRASQSVHTGLNWYQQKPGKAPKLLIYGASNLQSGVPSRFSGSGSGTDFTLTISSLQPEDFATYYCQQFEHNPLTFGQGIKVEIKR	60.8 ng/mL
mAb-3全抗体 (antibody, human IgG1, kappa, V domains shown) VH: QVQLVQSGAEVKKPGASVKVSCKASGYAFSRFGISWVRQAPGQGLEWMGWISTYSGNTNYAKHLLGRVTMTTDTSTSTAYMELRSLRSDDTAVYYCARRFLKFDYWGQGTLVTVSS VL: DIQMTQSPSSLSASVGDRVTITCRASQDIDSSLNWYQQKPGKAPKLLIYAASNRESGVPSRFSGSGSGTDFTLTISSLQPEDFATYYCQQWANMPGTFGQGTKVEIKR	33.4 ng/mL
mAb-6全抗体 (antibody, human IgG1, kappa, V domains shown) VH: QVQLVQSGAEVKKPGASVKVSCKASGYSFTRYGISWVRQAPGQGLEWMGWISTYSGNTNYAKQFKGRVTMTTDTSTSTAYMELRSLRSDDTAVYYCARRVLRLDYWGQGTLVTVSS VL: EIVMTQSPATLSVSPGERATLSCRASQDISISLGWFQQKPGQAPRPLIYGWNTRATGVPARFSGSGSGTDFTLTISSLQSEDFAVYYCQQYSDPFLTFGGGTKVEIKR	33.4 ng/mL
mAb-8全抗体 (antibody, human IgG1, kappa, V domains shown) VH: QVQLVQSGAEVKKPGASVKVSCKASGYGFASRGISWVRQAPGQGLEWMGWISTYSGNTNYAKKFEGRVTMTTDTSTSTAYMELRSLRSDDTAVYYCARRVLRLDYWGQGTLVTVSS VL: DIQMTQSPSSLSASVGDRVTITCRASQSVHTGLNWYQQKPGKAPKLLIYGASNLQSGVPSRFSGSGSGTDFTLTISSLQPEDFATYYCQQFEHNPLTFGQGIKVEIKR	13.5 ng/mL

Continue with the binder presented below.
For this binder ( 上市产品Brodalumab的全抗体 (antibody, V domains shown) VH: QVQLVQSGAEVKKPGASVKVSCKASGYTFTRYGISWVRQAPGQGLEWMGWISTYSGNTNYAQKLQGRVTMTTDTSTSTAYMELRSLRSDDTAVYYCARRQLYFDYWGQGTLVTVSS VL: EIVMTQSPATLSVSPGERATLSCRASQSVSSNLAWFQQKPGQAPRPLIYDASTRATGVPARFSGSGSGTDFTLTISSLQSEDFAVYYCQQYDNWPLTFGGGTKVEIK ), measured 抑制HDF细胞产生IL-6 IC50(ng/ml) is 117 ng/mL
